Reported IC50 by item:
Measured Target: Human factor D (Homo sapiens (Human))
Sequence (P00746 26-253 limits assumed): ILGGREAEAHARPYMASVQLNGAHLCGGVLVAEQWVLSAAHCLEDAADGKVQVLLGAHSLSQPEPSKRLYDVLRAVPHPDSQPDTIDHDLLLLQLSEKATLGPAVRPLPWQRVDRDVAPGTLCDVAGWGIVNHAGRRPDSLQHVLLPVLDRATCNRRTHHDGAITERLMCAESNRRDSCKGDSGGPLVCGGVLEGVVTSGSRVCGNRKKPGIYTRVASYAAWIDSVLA
Type: biochemical

{"Compound": "CCOP(=O)(OCC)c1ccc2c(C(N)=O)cn(CC(=O)N3C[C@H](F)C[C@H]3C(=O)NCc3cccc(Cl)c3F)c2c1 [Compound 15]", "Measured Target": "Human factor D (Homo sapiens (Human))", "IC50": "< 1000 nM"}
{"Compound": "CCOP(=O)(O)c1ccc2c(C(C)=O)cn(CC(=O)N3C[C@H](F)C[C@H]3C(=O)NCc3cccc(Cl)c3F)c2c1 [Compound 2]", "Measured Target": "Human factor D (Homo sapiens (Human))", "IC50": "< 1000 nM"}
{"Compound": "CC(=O)c1cn(CC(=O)N2C[C@H](F)C[C@H]2C(=O)NCc2cccc(Cl)c2F)c2cc(P(=O)(O)O)c(F)cc12 [Compound 31]", "Measured Target": "Human factor D (Homo sapiens (Human))", "IC50": "< 1000 nM"}
{"Compound": "CC(=O)c1cn(CC(=O)N2C[C@H](F)C[C@H]2C(=O)NCc2cccc(Cl)c2F)c2cc(P(=O)(OCOC(=O)OC(C)C)OCOC(=O)OC(C)C)ccc12 [Compound 4]", "Measured Target": "Human factor D (Homo sapiens (Human))", "IC50": "< 1000 nM"}
{"Compound": "CCOP(=O)(OCC)c1ccc2c(C(=O)O)nn(CC(=O)N3C[C@H](F)C[C@H]3C(=O)NCc3cccc(Cl)c3F)c2c1 [Compound 12]", "Measured Target": "Human factor D (Homo sapiens (Human))", "IC50": "> 10000 nM"}
{"Compound": "CCOP(=O)(OCC)c1ccc2c(C(=O)OC)cn(CC(=O)N3C[C@H](F)C[C@H]3C(=O)NCc3cccc(Cl)c3F)c2c1 [Compound 13]", "Measured Target": "Human factor D (Homo sapiens (Human))", "IC50": "< 1000 nM"}

----------
// IC50 lookup, one value per entry
Measured Target: Human factor D (Homo sapiens (Human))

{"Mol Smiles": "CCCCOP(=O)(O)c1ccc2c(C(C)=O)cn(CC(=O)N3C[C@H](F)C[C@H]3C(=O)NCc3cccc(Cl)c3F)c2c1", "IC50": "< 1000 nM"}
{"Mol Smiles": "CC(=O)c1cn(CC(=O)N2C[C@H](F)C[C@H]2C(=O)NCc2cccc(Cl)c2F)c2cc(P(=O)(OCOC(=O)C(C)(C)C)OCOC(=O)C(C)(C)C)ccc12", "IC50": "< 1000 nM"}
{"Mol Smiles": "CC(=O)c1cn(CC(=O)N2C[C@H](F)C[C@H]2C(=O)NCc2cccc(Cl)c2F)c2cc(P(=O)(O)OCC(F)(F)F)ccc12", "IC50": "< 1000 nM"}
{"Mol Smiles": "CC(=O)c1cn(CC(=O)N2C[C@H](F)C[C@H]2C(=O)NCc2cccc(Cl)c2F)c2ccc(P(=O)(O)O)cc12", "IC50": "< 1000 nM"}

The reported numbers originate from patent US9663543B2.
